Tgt: UniProt:P11511
Sequence (P11511 whole entry): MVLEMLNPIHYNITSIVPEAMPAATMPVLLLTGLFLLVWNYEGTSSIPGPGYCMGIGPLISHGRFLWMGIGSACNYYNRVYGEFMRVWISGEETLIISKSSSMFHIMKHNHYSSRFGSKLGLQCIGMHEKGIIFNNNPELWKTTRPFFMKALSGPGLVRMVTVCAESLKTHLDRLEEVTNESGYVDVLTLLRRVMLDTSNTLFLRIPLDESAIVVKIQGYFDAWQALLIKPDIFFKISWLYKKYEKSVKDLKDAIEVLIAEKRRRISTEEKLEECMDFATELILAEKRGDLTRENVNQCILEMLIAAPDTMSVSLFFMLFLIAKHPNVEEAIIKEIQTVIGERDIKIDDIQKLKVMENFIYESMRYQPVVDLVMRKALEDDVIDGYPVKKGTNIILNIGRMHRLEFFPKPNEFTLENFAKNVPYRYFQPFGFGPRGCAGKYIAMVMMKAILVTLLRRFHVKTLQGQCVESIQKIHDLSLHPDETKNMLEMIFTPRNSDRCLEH
Protocol Summary: Inhibition of aromatase at 50 uM after 10 mins preincubation by plate reader relative to control
Lab note: compare inhibition at 50 µM against 30%. Equal or greater, write Satisfied. Smaller, write Not satisfied.

| Smiles Record | Class Assignment |
| --- | --- |
| CCCCCNC(=O)N1Cc2[nH]c3ccccc3c2C[C@@H]1C(=O)OC | Not satisfied |
| C=CCOC(=O)N1Cc2[nH]c3ccccc3c2C[C@@H]1C(=O)OC | Satisfied |
| COC(=O)[C@@H]1Cc2c([nH]c3ccccc23)CN1C(=O)NC1CCCCC1 | Satisfied |
| COC(=O)[C@@H]1Cc2c([nH]c3ccccc23)CN1Cc1ccccc1 | Satisfied |
| C#CCN1Cc2[nH]c3ccccc3c2C[C@@H]1C(=O)O | Not satisfied |

* * *

The following compounds are shown together with reported inhibition values.
Tested on: HEK293
Protocol Summary: Inhibition of TNF-alpha-induced NFkappaB activation in human HEK293 cells at 50 uM after 6 hrs by luciferase assay relative to control
Format: cell-based

| Smiles Record | inhibition [%] |
| --- | --- |
| CCCCCNC(=O)N1Cc2[nH]c3ccccc3c2C[C@@H]1C(=O)OC | 62.1 |
| O=C(O)[C@@H]1Cc2c([nH]c3ccccc23)CN1 | 4.6 |
| C=CCOC(=O)N1Cc2[nH]c3ccccc3c2C[C@@H]1C(=O)O | 49.4 |
| C#CCN1Cc2[nH]c3ccccc3c2C[C@H]1C(=O)O | 50.2 |
| C=CCOC(=O)N1Cc2[nH]c3ccccc3c2C[C@H]1C(=O)O | 35.6 |
| COC(=O)[C@H]1Cc2c([nH]c3ccccc23)CN1S(=O)(=O)c1ccc(Br)cc1 | 43.7 |
| COC(=O)[C@@H]1Cc2c([nH]c3ccccc23)CN1S(=O)(=O)c1ccc(C)cc1 | 6 |
| COC(=O)[C@H]1Cc2c([nH]c3ccccc23)CN1C(=O)NC(C)C | 73.7 |
| COC(=O)[C@@H]1Cc2c([nH]c3ccccc23)CN1Cc1ccc(OCc2ccccc2)cc1 | 24.7 |
| COC(=O)[C@@H]1Cc2c([nH]c3ccccc23)CN1C(=O)NCCc1ccccc1 | 87.7 |
| COC(=O)[C@@H]1Cc2c([nH]c3ccccc23)CN1C(=O)NC1CCCCC1 | 44.7 |
| COC(=O)[C@H]1Cc2c([nH]c3ccccc23)CN1CC1CC1 | 29.9 |
| COC(=O)[C@H]1Cc2c([nH]c3ccccc23)CN1Cc1ccc(OCc2ccccc2)cc1 | 40.5 |
| O=C(O)[C@H]1Cc2c([nH]c3ccccc23)CN1S(=O)(=O)c1ccc(Br)cc1 | 50.9 |
| O=C(O)[C@@H]1Cc2c([nH]c3ccccc23)CN1Cc1ccccc1 | 59.5 |
| COC(=O)[C@@H]1Cc2c([nH]c3ccccc23)CN1Cc1ccc(O)cc1 | 47.8 |
| C=CCOC(=O)N1Cc2[nH]c3ccccc3c2C[C@H]1C(=O)OC | 33.3 |
| CS(=O)(=O)N1Cc2[nH]c3ccccc3c2C[C@@H]1C(=O)O | -2.3 |
| COC(=O)[C@@H]1Cc2c([nH]c3ccccc23)CN1C(=O)NC12CC3CC(CC(C3)C1)C2 | 60.7 |
| C#CCN1Cc2[nH]c3ccccc3c2C[C@@H]1C(=O)O | -7.7 |
| COC(=O)[C@H]1Cc2c([nH]c3ccccc23)CN1C(=O)NC1CCCCC1 | 20.9 |
| CCCCCNC(=O)N1Cc2[nH]c3ccccc3c2C[C@H]1C(=O)OC | 35.5 |
| O=C(O)[C@H]1Cc2c([nH]c3ccccc23)CN1CC1CC1 | 48.4 |
| Cc1ccc(S(=O)(=O)N2Cc3[nH]c4ccccc4c3C[C@@H]2C(=O)O)cc1 | 26 |
| COC(=O)[C@H]1Cc2c([nH]c3ccccc23)CN1C(=O)NC12CC3CC(CC(C3)C1)C2 | 36.5 |
| O=C(O)[C@@H]1Cc2c([nH]c3ccccc23)CN1S(=O)(=O)c1ccc(Br)cc1 | 55.4 |
| COC(=O)[C@H]1Cc2c([nH]c3ccccc23)CN1 | 58.4 |
| C=CCOC(=O)N1Cc2[nH]c3ccccc3c2C[C@@H]1C(=O)OC | 50.7 |
| CS(=O)(=O)N1Cc2[nH]c3ccccc3c2C[C@H]1C(=O)O | 51.1 |
| COC(=O)[C@H]1Cc2c([nH]c3ccccc23)CN1S(C)(=O)=O | 42.2 |
| COC(=O)[C@H]1Cc2c([nH]c3ccccc23)CN1S(=O)(=O)c1ccc(C)cc1 | 25.2 |
| O=C(O)[C@@H]1Cc2c([nH]c3ccccc23)CN1Cc1ccc(O)cc1 | 55 |
| O=C(O)[C@H]1Cc2c([nH]c3ccccc23)CN1Cc1ccccc1 | 41.8 |
| COC(=O)[C@@H]1Cc2c([nH]c3ccccc23)CN1S(C)(=O)=O | 38.6 |
| C#CCN1Cc2[nH]c3ccccc3c2C[C@@H]1C(=O)OC | 43.6 |
| COC(=O)[C@H]1Cc2c([nH]c3ccccc23)CN1C(=O)NCCc1ccccc1 | 81.7 |
| COC(=O)[C@H]1Cc2c([nH]c3ccccc23)CN1Cc1ccccc1 | 54.4 |

* * *

Tgt: Nitric oxide synthase, inducible (Mus musculus) (UniProt P29477)
Sequence (whole entry): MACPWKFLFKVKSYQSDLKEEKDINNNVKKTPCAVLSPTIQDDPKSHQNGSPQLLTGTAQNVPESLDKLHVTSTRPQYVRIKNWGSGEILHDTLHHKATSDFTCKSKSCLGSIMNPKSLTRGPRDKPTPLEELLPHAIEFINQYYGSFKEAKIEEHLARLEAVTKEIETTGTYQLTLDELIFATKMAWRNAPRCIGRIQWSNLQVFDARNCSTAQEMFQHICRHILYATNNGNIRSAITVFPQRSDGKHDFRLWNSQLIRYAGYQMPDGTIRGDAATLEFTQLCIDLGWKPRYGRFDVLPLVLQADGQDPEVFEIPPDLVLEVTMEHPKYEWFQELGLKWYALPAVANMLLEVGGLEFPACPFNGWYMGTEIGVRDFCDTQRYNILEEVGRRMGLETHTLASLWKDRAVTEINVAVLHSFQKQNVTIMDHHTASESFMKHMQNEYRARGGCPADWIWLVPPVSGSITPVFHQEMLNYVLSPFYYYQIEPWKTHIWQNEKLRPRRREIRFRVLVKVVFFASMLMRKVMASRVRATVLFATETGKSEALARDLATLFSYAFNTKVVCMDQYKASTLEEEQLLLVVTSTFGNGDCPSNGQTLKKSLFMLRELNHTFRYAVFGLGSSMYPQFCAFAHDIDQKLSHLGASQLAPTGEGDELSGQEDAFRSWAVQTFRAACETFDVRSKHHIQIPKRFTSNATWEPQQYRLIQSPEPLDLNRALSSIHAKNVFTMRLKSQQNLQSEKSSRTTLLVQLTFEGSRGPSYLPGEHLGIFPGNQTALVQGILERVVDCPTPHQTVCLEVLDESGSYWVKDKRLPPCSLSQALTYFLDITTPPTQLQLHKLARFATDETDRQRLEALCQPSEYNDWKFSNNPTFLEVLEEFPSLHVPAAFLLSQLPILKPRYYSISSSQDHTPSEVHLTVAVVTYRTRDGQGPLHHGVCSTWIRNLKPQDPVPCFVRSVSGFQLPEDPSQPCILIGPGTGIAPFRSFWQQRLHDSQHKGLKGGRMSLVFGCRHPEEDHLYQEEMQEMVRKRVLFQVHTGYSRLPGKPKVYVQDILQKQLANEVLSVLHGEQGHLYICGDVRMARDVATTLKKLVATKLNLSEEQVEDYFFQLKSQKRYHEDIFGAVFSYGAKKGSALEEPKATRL
Protocol Summary: Inhibition of iNOS-mediated nitric oxide production in LPS-stimulated mouse RAW 264.7 cells at 50 uM pretreated 15 mins before LPS challenge measured after 20 hrs relative to control
Type: cell-based
Lab note: compare inhibition against 10%. Equal or greater, write Fulfilled. Smaller, write Not fulfilled.

| Smiles Record | Class Assignment |
| --- | --- |
| COC(=O)[C@H]1Cc2c([nH]c3ccccc23)CN1C(=O)NC1CCCCC1 | Fulfilled |
| COC(=O)[C@H]1Cc2c([nH]c3ccccc23)CN1Cc1ccccc1 | Fulfilled |
| COC(=O)[C@@H]1Cc2c([nH]c3ccccc23)CN1S(=O)(=O)c1ccc(Br)cc1 | Fulfilled |
| CS(=O)(=O)N1Cc2[nH]c3ccccc3c2C[C@@H]1C(=O)O | Not fulfilled |
| C=CCOC(=O)N1Cc2[nH]c3ccccc3c2C[C@@H]1C(=O)OC | Fulfilled |
| COC(=O)[C@H]1Cc2c([nH]c3ccccc23)CN1Cc1ccc(OCc2ccccc2)cc1 | Fulfilled |
| COC(=O)[C@@H]1Cc2c([nH]c3ccccc23)CN1 | Fulfilled |
| O=C(O)[C@H]1Cc2c([nH]c3ccccc23)CN1Cc1ccc(O)cc1 | Fulfilled |
| C#CCN1Cc2[nH]c3ccccc3c2C[C@H]1C(=O)OC | Fulfilled |
| COC(=O)[C@@H]1Cc2c([nH]c3ccccc23)CN1Cc1ccc(OCc2ccccc2)cc1 | Fulfilled |
| O=C(O)[C@@H]1Cc2c([nH]c3ccccc23)CN1CC1CC1 | Not fulfilled |
| O=C(O)[C@@H]1Cc2c([nH]c3ccccc23)CN1Cc1ccccc1 | Not fulfilled |
| COC(=O)[C@H]1Cc2c([nH]c3ccccc23)CN1S(=O)(=O)c1ccc(C)cc1 | Not fulfilled |
| CCCCCNC(=O)N1Cc2[nH]c3ccccc3c2C[C@@H]1C(=O)OC | Fulfilled |
| CS(=O)(=O)N1Cc2[nH]c3ccccc3c2C[C@H]1C(=O)O | Not fulfilled |
| O=C(O)[C@H]1Cc2c([nH]c3ccccc23)CN1 | Not fulfilled |
| C=CCOC(=O)N1Cc2[nH]c3ccccc3c2C[C@H]1C(=O)OC | Not fulfilled |
| Cc1ccc(S(=O)(=O)N2Cc3[nH]c4ccccc4c3C[C@H]2C(=O)O)cc1 | Not fulfilled |
| COC(=O)[C@@H]1Cc2c([nH]c3ccccc23)CN1C(=O)NC1CCCCC1 | Fulfilled |
| C=CCOC(=O)N1Cc2[nH]c3ccccc3c2C[C@H]1C(=O)O | Not fulfilled |
| C#CCN1Cc2[nH]c3ccccc3c2C[C@@H]1C(=O)O | Fulfilled |
| C#CCN1Cc2[nH]c3ccccc3c2C[C@@H]1C(=O)OC | Fulfilled |
| COC(=O)[C@H]1Cc2c([nH]c3ccccc23)CN1 | Not fulfilled |
| COC(=O)[C@H]1Cc2c([nH]c3ccccc23)CN1S(C)(=O)=O | Fulfilled |
| COC(=O)[C@@H]1Cc2c([nH]c3ccccc23)CN1CC1CC1 | Fulfilled |
| COC(=O)[C@@H]1Cc2c([nH]c3ccccc23)CN1S(=O)(=O)c1ccc(C)cc1 | Fulfilled |
| O=C(O)[C@@H]1Cc2c([nH]c3ccccc23)CN1Cc1ccc(O)cc1 | Fulfilled |
| COC(=O)[C@@H]1Cc2c([nH]c3ccccc23)CN1C(=O)NCCc1ccccc1 | Fulfilled |
| C=CCOC(=O)N1Cc2[nH]c3ccccc3c2C[C@@H]1C(=O)O | Not fulfilled |
| COC(=O)[C@H]1Cc2c([nH]c3ccccc23)CN1S(=O)(=O)c1ccc(Br)cc1 | Not fulfilled |
| O=C(O)[C@@H]1Cc2c([nH]c3ccccc23)CN1 | Not fulfilled |
| COC(=O)[C@H]1Cc2c([nH]c3ccccc23)CN1C(=O)NC(C)C | Fulfilled |
